pIC50 reference
- assayed target: cloned human NMDA receptor (NR1/NR2A) channel (Homo sapiens, UniProt Q05586+Q12879)
- Sequence (Q12879 23-1464, other chains not shown): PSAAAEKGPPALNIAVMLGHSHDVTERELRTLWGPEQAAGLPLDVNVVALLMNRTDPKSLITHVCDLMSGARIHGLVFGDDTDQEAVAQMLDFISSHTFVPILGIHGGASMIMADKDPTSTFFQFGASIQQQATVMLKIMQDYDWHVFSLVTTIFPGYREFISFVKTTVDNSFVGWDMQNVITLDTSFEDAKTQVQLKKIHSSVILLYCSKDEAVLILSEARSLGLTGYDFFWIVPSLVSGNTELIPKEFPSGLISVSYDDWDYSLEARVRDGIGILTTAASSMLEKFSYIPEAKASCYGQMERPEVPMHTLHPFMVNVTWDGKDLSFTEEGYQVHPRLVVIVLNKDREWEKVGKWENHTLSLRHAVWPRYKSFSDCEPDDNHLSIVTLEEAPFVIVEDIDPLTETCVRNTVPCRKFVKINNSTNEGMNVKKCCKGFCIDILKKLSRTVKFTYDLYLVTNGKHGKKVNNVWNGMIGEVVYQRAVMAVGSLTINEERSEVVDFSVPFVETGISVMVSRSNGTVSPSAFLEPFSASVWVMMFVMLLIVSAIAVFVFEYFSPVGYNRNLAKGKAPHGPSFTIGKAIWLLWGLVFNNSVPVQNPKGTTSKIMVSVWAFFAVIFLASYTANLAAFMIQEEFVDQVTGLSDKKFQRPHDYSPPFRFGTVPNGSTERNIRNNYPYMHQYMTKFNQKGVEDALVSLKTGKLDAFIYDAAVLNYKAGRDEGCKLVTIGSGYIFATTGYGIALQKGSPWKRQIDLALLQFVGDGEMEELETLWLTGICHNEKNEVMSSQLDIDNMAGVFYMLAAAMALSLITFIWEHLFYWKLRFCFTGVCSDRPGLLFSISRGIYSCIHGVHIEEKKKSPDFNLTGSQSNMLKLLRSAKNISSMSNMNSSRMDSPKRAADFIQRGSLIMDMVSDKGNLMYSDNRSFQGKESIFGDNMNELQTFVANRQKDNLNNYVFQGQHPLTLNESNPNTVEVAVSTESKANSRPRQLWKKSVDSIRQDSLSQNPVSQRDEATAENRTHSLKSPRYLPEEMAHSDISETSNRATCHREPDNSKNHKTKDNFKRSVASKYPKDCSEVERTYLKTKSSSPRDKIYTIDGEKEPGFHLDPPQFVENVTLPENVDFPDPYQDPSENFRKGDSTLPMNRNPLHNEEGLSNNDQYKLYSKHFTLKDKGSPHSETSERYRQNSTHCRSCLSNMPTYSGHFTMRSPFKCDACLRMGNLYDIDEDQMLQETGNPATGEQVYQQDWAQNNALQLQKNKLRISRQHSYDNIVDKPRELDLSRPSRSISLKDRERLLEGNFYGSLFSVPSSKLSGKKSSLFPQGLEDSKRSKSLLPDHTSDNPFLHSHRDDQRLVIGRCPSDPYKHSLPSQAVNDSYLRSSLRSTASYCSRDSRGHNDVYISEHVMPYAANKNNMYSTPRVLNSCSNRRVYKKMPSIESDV
- experiment summary: FLIPR Ca++ flux assay in NR1/NR2A expressing HEK cells
Counter-ions that a name gives are not always drawn.
Just so you know, pIC50 here is -log10 of the concentration in molar units; reply with that number alone.

These recorded examples may help you get a feel for the data.
c1ccc(C2(N3CCCCC3)CCCCC2)cc1 [Phencyclidine (PCP), Phencyclidine, reference compound] = 5.12
CN1CC[C@@]23CCCC[C@@H]2[C@@H]1Cc1ccc(-c2nncs2)cc13 [Compound-2, hydrochloride] = 3.65
COc1ccc2c(c1)[C@]13CCCC[C@@H]1[C@H](C2)N(C)CC3 [Dextromethorphan (DMX), Dextromethorphan, reference compound] = 3.97
CNC1(c2ccccc2Cl)CCCCC1=O (stereo not drawn) [Ketamine, reference compound] = 4.24
CN1CC[C@@]23CCCCC2[C@@H]1Cc1ccc(-c2cscn2)cc13 (stereo partly drawn) = 4.30

Determine reported pIC50 for CN1CC[C@@]23CCCCC2[C@@H]1Cc1ccc(-c2nccs2)cc13 (stereo partly drawn) ; test system: cloned human NMDA receptor (NR1/NR2A) channel (Homo sapiens, UniProt Q05586+Q12879). 4.48

Send back cloned human NMDA receptor (NR1/NR2A) channel (Homo sapiens, UniProt Q05586+Q12879) pIC50 of CN1CC[C@@]23CCCCC2[C@@H]1Cc1ccc(-c2nnc(CO)s2)cc13 (stereo partly drawn) only. 4.32

Tell me its pIC50 on cloned human NMDA receptor (NR1/NR2A) channel (Homo sapiens, UniProt Q05586+Q12879): CN1CC[C@@]23CCCC[C@@H]2[C@@H]1Cc1ccc(C(N)=O)cc13 [Compound-1] 3.65

Find pIC50 for CN1CC[C@@]23CCCCC2[C@@H]1Cc1ccc(-c2nnc(N)s2)cc13 (stereo partly drawn) on cloned human NMDA receptor (NR1/NR2A) channel (Homo sapiens, UniProt Q05586+Q12879) and write it down. 4.45
